Here, each record is paired with measured Plant response rating, Corn data.
Tested on: corn (Zea mays)
Assay: Test A postemergence
Type: in vivo
Details: 500 g ai/ha, postemergence; visual injury, 0 to 100 scale (0 no effect, 100 complete control), approx. 10 d

| molecule | Plant response rating, Corn |
| --- | --- |
| Cc1ccc(C2CNC(=O)C2C(=O)Nc2cccc(F)c2F)cc1C(F)(F)F (racemic) [Compound 679] | 50 |
| Cc1ccc(C2CNC(=O)C2C(=O)Nc2ccc(F)c(F)c2F)cc1C(F)(F)F (racemic) [Compound 681] | 30 |

Exercise: Fill in the blank: the reported Plant response rating, Corn of CC(C)Oc1cccc(C2CN(C)C(=O)C2C(=O)Nc2ccccc2F)c1 (stereo not shown) [Compound 650] is ____.
Solution: 90

Exercise: Recorded Plant response rating, Corn of CN1CC(c2ccc(C(C)(F)F)cc2)C(C(=O)Nc2ccccc2F)C1=O (stereo not shown) [Compound 691] , please.
Solution: 90

Exercise: Quick check: Plant response rating, Corn of CN1CC(c2cc(F)cc(F)c2)C(C(=O)Nc2ccccc2C(F)(F)F)C1=O (stereo not shown) [Compound 647] ?
Solution: 40

Exercise: // returns reported Plant response rating, Corn for input O=C1NCC(c2cccc(OC(F)(F)C(F)F)c2)C1C(=O)Nc1ccccc1Cl (racemic) [Compound 699]
Solution: 60

Exercise: Plant response rating, Corn for O=C1NCC(c2cccc(OC(F)(F)C(F)F)c2)C1C(=O)Nc1ccccc1F (racemic) [Compound 695] ?
Solution: 80

----------
Tested on: Galium (catchweed bedstraw, Galium aparine)
Experiment: Test A postemergence
Type: in vivo
Conditions: 125 g ai/ha, postemergence; visual injury rating on 0 to 100 scale (0 no effect, 100 complete control), approx. 10 d
In this section, each of the compounds is paired with its reported Galium plant response rating.
Just the number, please, no unit after it.

Check out these entries, answers already filled in.
| compound | Galium plant response rating |
| --- | --- |
| CN1CC(c2ccc(Cl)cc2)C(C(=O)Nc2ccccc2F)C1=O (stereo not shown) | 50 |
| O=C1NCC(c2ccc(Br)cc2)C1C(=O)Nc1ccccc1Cl (stereo not shown) | 30 |
| COCc1cccc(C2CNC(=O)C2C(=O)Nc2ccccc2Cl)c1 (stereo not shown) | 0 |
| O=C1NCC(c2cccc(OCC(F)F)c2)C1C(=O)Nc1ccccc1F (racemic) | 0 |
| CN1CC(c2cccc(OC(F)(F)C(F)F)c2)C(C(=O)Nc2ccc(F)cc2F)C1=O (stereo not shown) | 70 |
| O=C1NCC(c2ccnc(C(F)(F)F)c2)C1C(=O)Nc1cccc(F)c1F (racemic) | 40 |
| COc1c(F)ccc(NC(=O)C2C(=O)NCC2c2cccc(C(F)(F)F)c2)c1F (racemic) | 50 |
| COc1c(F)ccc(NC(=O)C2C(=O)N(C)CC2c2cccc(OC(F)(F)C(F)F)c2)c1F (stereo not shown) | 50 |

Exercise: Query: Galium plant response rating; subject: O=C1NCC(c2cc(F)cc(Cl)c2)C1C(=O)Nc1cccc(F)c1F (stereo not shown)
Solution: 50

Exercise: Value lookup for Galium plant response rating; key = Cc1ccc(C2CNC(=O)C2C(=O)Nc2ccccc2F)c(F)c1 (racemic)
Solution: 0

----------
Test system: ducksalad (Heteranthera limosa)
Test: Test B flooded paddy test
Format: in vivo
Conditions: Flood, 500 g ai/ha; 0 to 100 scale where 0 is no effect and 100 is complete control; 13 to 15 d
Assign 1 (yes) whenever Plant response rating, Ducksalad does not fall below 50; assign 0 (no) whenever it does.

Below are worked cases with known answers.
| compound | class name |
| --- | --- |
| COc1ccc(NC(=O)C2C(=O)NCC2c2ccc(F)c(F)c2)cc1F (centres unmarked) | 0 (no) |
| O=C1NCC(c2cccc(OCC(F)F)c2)C1C(=O)Nc1ccc(F)cc1F (centres unmarked) | 1 (yes) |
| O=C1NCC(c2cccc(OC(F)(F)C(F)F)c2)C1C(=O)Nc1ccccc1Cl (racemic) | 1 (yes) |
| O=C1NCC(c2ccc(F)c(F)c2)C1C(=O)Nc1ccc(F)cc1Cl (centres unmarked) | 1 (yes) |
| CC(=O)c1ccccc1NC(=O)C1C(=O)NCC1c1cccc(C(F)(F)F)c1 (racemic) | 0 (no) |
| NS(=O)(=O)c1ccccc1NC(=O)C1C(=O)NCC1c1cccc(C(F)(F)F)c1 (centres unmarked) | 0 (no) |

# next compound below
Exercise: Does the compound O=C1NCC(c2ccc(Oc3ccccc3)cc2)C1C(=O)Nc1ccc(F)c(F)c1F (racemic) have recorded Plant response rating, Ducksalad that is 50 or more?
Solution: 0 (no)

----------
Test system: barnyardgrass (Echinochloa crus-galli)
Assay: Test B flooded paddy test
Assay type: in vivo
Settings: Echinochloa crus-galli, Flood, 250 g ai/ha; scale of 0 to 100 where 0 is no effect and 100 is complete control; read-out: Barnyardgrass plant response rating
quantity kind: pest or weed control at 250 g/ha (%)
Value expressed in %; do not type the unit.

Example entries and their recorded answers appear below.
| record smiles | quantity kind | readout number |
| --- | --- | --- |
| CN1CC[C@H](c2cccc(OC(F)(F)F)c2)[C@@H](C(=O)Nc2cccc(Cl)c2F)C1=O | pest or weed control at 250 g/ha | 60 |
| CN1C[C@H](c2ccc(C(F)F)cc2)[C@@H](C(=O)Nc2ccccc2F)C1=O | pest or weed control at 250 g/ha | 90 |
| C=CCN1C[C@H](c2ccc(OC)c(F)c2)[C@@H](C(=O)Nc2cccc(F)c2F)C1=O | pest or weed control at 250 g/ha | 0 |
| CCOc1cccc([C@H]2CN(C)C(=O)[C@@H]2C(=O)Nc2ccc(F)cc2F)c1 | pest or weed control at 250 g/ha | 65 |
| CN1C[C@H](c2cccc(C3CC3)c2)[C@@H](C(=O)Nc2ccc(F)cc2F)C1=O | pest or weed control at 250 g/ha | 55 |

Exercise: May I ask what pest or weed control at 250 g/ha has been recorded for "CN1C[C@H](c2ccc(C(F)(F)F)cc2)[C@@H](C(=O)Nc2ccc(F)cc2Br)C1=O" ?
Solution: 0

Exercise: Please look up its pest or weed control at 250 g/ha: "CCOc1ccc([C@H]2CNC(=O)[C@@H]2C(=O)Nc2ccc(F)cc2F)cc1"
Solution: 0

Exercise: Please look up its pest or weed control at 250 g/ha: "Cc1ccc(NC(=O)[C@H]2C(=O)N(C)C[C@@H]2c2cc(F)cc(F)c2)cc1"
Solution: 0

----------
Recorded measurements of pest or weed control at 125 g/ha, one per entry
System: ryegrass, Italian (Italian ryegrass, Lolium multiflorum)
Experiment: Test A preemergence
Format: in vivo
Details: Lolium multiflorum, pre-emergence, 240 h, Preemergence, 125 g ai/ha; 0 to 100 scale (0 no effect, 100 complete control); read-out: Plant response rating, Ryegrass, Italian
Just the number in %, nothing appended.

| compound | readout number |
| --- | --- |
| CN1C[C@H](c2cccc(C(F)(F)F)c2)[C@@H](C(=O)Nc2ccc(F)c(F)c2F)C1=O | 80 |
| CN1C[C@H](c2cccc(C(F)(F)F)c2)[C@@H](C(=O)Nc2ccc(F)nc2F)C1=O | 60 |
| Cc1cccc([C@H]2CN(C)C(=O)[C@@H]2C(=O)Nc2cnccc2C)c1 | 0 |
| O=C1NC[C@H](c2nccc(C(F)(F)F)n2)[C@H]1C(=O)Nc1cccc(F)c1F | 0 |
| COc1ccc([C@H]2CN(C)C(=O)[C@@H]2C(=O)Nc2ccccc2F)cc1 | 0 |
| COc1cc(OC)cc([C@H]2CN(C)C(=O)[C@@H]2C(=O)Nc2cccc(F)c2F)c1 | 80 |
| Cc1c(F)ccc([C@H]2CNC(=O)[C@@H]2C(=O)Nc2ccc(F)cc2F)c1F | 0 |

Exercise: Fill in the recorded pest or weed control at 125 g/ha for this compound, with ryegrass, Italian (Italian ryegrass, Lolium multiflorum) as test system: C=CN1C[C@H](c2ccc(C)c(F)c2)[C@@H](C(=O)Nc2cccc(F)c2F)C1=O (racemic)
Solution: 0

----------
Tested on: barnyardgrass (Echinochloa crus-galli)
Experiment: Test A postemergence
Assay type: in vivo
Conditions: Echinochloa crus-galli, post-emergence, 240 h, 125 g ai/ha, Postemergence, visual rating about 10 d after treatment; read-out: Barnyardgrass plant response rating (0 to 100 scale, 0 no effect, 100 complete control)
List of pest or weed control at 125 g/ha values.
Give the quantity in %, number only.

Some molecules with known pest or weed control at 125 g/ha results, for comparison:
| molecule | readout number |
| --- | --- |
| CN1C[C@H](c2cccc(C(C)(F)F)c2)[C@@H](C(=O)Nc2ccccc2F)C1=O [Compound 1317] | 90 |
| Cc1c(F)ccc([C@H]2CNC(=O)[C@@H]2C(=O)Nc2cccc(F)c2F)c1F [Compound 1327] | 90 |
| CN1C[C@H](c2csc3c2CCC(F)(F)C3)[C@@H](C(=O)Nc2ccccc2S(C)(=O)=O)C1=O (racemic) [Compound 1367] | 30 |
| Cc1c(F)cccc1NC(=O)[C@H]1C(=O)NC[C@@H]1c1cccc2c1OC(F)(F)O2 [Compound 1305] | 60 |
| CN1C[C@H](c2cccc(C(C)(F)F)c2)[C@@H](C(=O)Nc2cccc(F)c2F)C1=O [Compound 1316] | 90 |

For the next question, use this molecule.
Exercise: Need pest or weed control at 125 g/ha of CN1C[C@H](c2csc3c2CCCC3)[C@@H](C(=O)Nc2ccccc2F)C1=O [Compound 1275] , thanks.
Solution: 90
